# method: yeast display, Sf9 membrane polyspecificity reagent, FACS + sequencing; frameworks hold sequencing errors
measurement.name: polyreactivity (PSR sort gate)

sequence.input | measurement.name | observed.result
QVQLVETGGGLVQAGGSLRLSCAASGSIAFNAMGWYTQAPGKERELVAAITWRVGSTYYADSVKGRFTISRDNAMNTVDLQMHSLKTEDTAVYYCAARRTAGAYYGYNYWGQGTQVTVSS | polyreactivity (PSR sort gate) | high polyreactivity
QVQLVESGGGLVQAGGSLRLSCAASGRTFSGYAMGWYRQAPGKERELVATITWSSGSTYYADSVKGRFTISRDNAKNTVYLQMNSLKPEDTAVYYCNADQGSALRWSYDYWGQGTQVTVSS | polyreactivity (PSR sort gate) | low polyreactivity
QVQLVESGGGLVQAGGSLRLSCAASGSTFRDNAMGWYRQAPGKEWELVAAITVIDGTTYYADSVKGRFTLSRDNAKNTVYLQMNSLKPEDTAVYYCAADTIWYEYYYWGQGTQVTVSS | polyreactivity (PSR sort gate) | low polyreactivity
QVQLVESGGGLVQAGGSLRFSCAASGFIFSFYAMGWYRQAPGKERELVAAISSSGSTNYADSVKGRFTISRDNAKNTVYLQMNSLKPEDTAVYYCAARWHRSRAGYYYWGQGTQVTVSS | polyreactivity (PSR sort gate) | high polyreactivity
QVQLEESGGGLVQAGGSLRLSCAASGSNFYLNDMGWYRQAPGKEREFVAAIDSRGTSTYYADSVKGRFTISRDNAKNTVYLQMNSLNPEDTAVYYCAADSYALEYDYWGQGTQVTVSS | polyreactivity (PSR sort gate) | low polyreactivity
QVQLVESGGGIVQAGGSLRLSCAASGYNFRSYVMGWYRQAPGKERELVAAISVSGGRTYYADSVKGRFTISRDNAKNTVYLQMNSLKPEDTAVYYCATDPYSYYWPSHMDYWGQGTQVTVSS | polyreactivity (PSR sort gate) | high polyreactivity
QVQLVESGGGLVQAGGSLRLSCAASGFTFYGYGMGWYRPAPGKERELVAVITSGGSTKYADSVKGRFTISRDNAKNTVYLQMNSLKPEDTAVYYCNVVGGRYLYSAYDYWGQGTQVTVSS | polyreactivity (PSR sort gate) | low polyreactivity
QVQLVESGGGLVQSGGSLRLSCAASGSTSGTNAMGWYRQAPGKERELVAGISYRGGSTYYADSVKGRFTISRDNAKNTVYLHMNSLKPEDTEVYYCAASRNISYWGQGTQVTVSS | polyreactivity (PSR sort gate) | high polyreactivity
QVQLVESGGGLVQAGGSLRLSCAASGSIFTGYAMGWYRQAPGKERELVAAISNSGTATYYADSVKGRFTISRDNAKNTVYLQMNSLKPEDSAVYYCNTVGHRWLSDDDYWGQGTQVTVSS | polyreactivity (PSR sort gate) | low polyreactivity
QVQLVESGGGLVQAGGSLRLRCAASGFTFYRKAMGWYRHAHGKERELVAAITRGGSTTYADSVKGRFTISRDNAKNTVYLQMNSLKPEDTAVYYCAVPQYLYLQAGHGYRYYYWGQGSQVTVSS | polyreactivity (PSR sort gate) | high polyreactivity
QVQHVESRGGLVQAGGSLRLSCAASGSTIISNAQGWYRLAPGKERELVASIRSSGSTNYADSVKGRFTISRDNAKNTVYLKMNSLKPEDTAVYYCAAGSYWVQFQYDYWGQGTQVTVSS | polyreactivity (PSR sort gate) | low polyreactivity
